pIC50: −log10 of the molar value.
Hi! I'm sharing some pIC50 results obtained with TrkB (Homo sapiens, UniProt Q16620).
Sequence (Q16620 32-822): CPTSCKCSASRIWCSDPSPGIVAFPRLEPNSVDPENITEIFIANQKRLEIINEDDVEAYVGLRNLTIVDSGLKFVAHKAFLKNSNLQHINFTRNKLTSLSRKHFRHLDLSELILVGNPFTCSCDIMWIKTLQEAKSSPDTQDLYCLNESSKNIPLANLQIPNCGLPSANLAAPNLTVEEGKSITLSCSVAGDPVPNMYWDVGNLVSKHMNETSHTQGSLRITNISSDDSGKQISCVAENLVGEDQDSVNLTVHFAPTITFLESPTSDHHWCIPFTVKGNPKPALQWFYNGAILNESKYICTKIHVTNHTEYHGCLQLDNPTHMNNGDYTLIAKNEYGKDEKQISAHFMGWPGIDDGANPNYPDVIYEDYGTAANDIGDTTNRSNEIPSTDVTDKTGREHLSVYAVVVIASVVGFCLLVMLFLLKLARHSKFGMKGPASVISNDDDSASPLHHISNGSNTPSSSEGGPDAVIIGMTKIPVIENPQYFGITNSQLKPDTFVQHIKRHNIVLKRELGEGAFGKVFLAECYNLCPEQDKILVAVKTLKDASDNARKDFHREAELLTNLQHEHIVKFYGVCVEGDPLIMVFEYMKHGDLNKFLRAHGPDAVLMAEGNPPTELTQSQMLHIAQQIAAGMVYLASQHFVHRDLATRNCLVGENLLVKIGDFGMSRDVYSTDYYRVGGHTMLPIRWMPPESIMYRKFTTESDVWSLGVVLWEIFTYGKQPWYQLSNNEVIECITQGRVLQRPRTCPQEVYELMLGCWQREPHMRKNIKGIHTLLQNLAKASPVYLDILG

| givenSmiles | testSystem | pIC50 |
| --- | --- | --- |
| COc1cc2ncnc(C3CCN(C(=O)Nc4ccc(-n5ccnc5)cc4)CC3)c2cc1OC | TrkB (Homo sapiens, UniProt Q16620) | < 4.38 |
| CN(C)[C@@H]1CCN(c2ccc3c(C4CCN(C(=O)Nc5ccc(N6CCOCC6)cc5)CC4)ncnc3c2)C1 | TrkB (Homo sapiens, UniProt Q16620) | < 4.38 |
| CN1CCN(CCCOc2ccc3c(C4CCN(C(=O)Nc5ccc(N6CCOCC6)cc5)CC4)ncnc3c2)CC1 | TrkB (Homo sapiens, UniProt Q16620) | < 4.70 |

Consider the additional molecule presented here.
Task: What is its pIC50 for TrkB (Homo sapiens, UniProt Q16620)? Entry: CN(C)c1c(NCCCOc2ccc3c(C4CCN(C(=O)Nc5ccc(N6CCCC6)nc5)CC4)ncnc3c2)c(=O)c1=O
Output: < 4.70
